Test system: FXR:RXRa (NR concentration 270 nM, RXRa partner concentration 90 nM)
assay.comment: PBM binding z-score (relative to random genomic background probes); higher = stronger binding; sequences stand for … in GC…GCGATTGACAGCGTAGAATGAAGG
quantity: PBM binding z-score

[[record]]
item_sequence = "GTAACGAGGGCAAAGTTGATAGCATCTGTCGACG"
endpoint_value = 1.48

[[record]]
item_sequence = "CGTATTAGTTGACCATAAGGGCAACCGAAGCTCG"
endpoint_value = 0.6

[[record]]
item_sequence = "TAGCCTCGGTCATGGGCCAGTATACCACGCGAAC"
endpoint_value = 0.333

[[record]]
item_sequence = "TTACCAAGGTGAAAGGCCGTTGATGCACGCCTTG"
endpoint_value = 0.494

[[record]]
item_sequence = "GCTGCTAGGTCAGGTAGGTCAGCTAACGGGTACG"
endpoint_value = 2.1


====

Recorded measurements of PBM binding z-score, one per entry
Test system: PPARg:RXRa 270nM:90nM, anti-RXR (NR concentration 270 nM, RXRa partner concentration 90 nM)
assay.comment: PBM binding z-score (relative to random genomic background probes); higher = stronger binding; sequences stand for … in GC…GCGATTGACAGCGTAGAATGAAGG
quantity: PBM binding z-score

[[record]]
item_sequence = "CCGAGTGGGGCATAAGGTTACCATAAGCCAGCCC"
endpoint_value = 3.09

[[record]]
item_sequence = "CAAACTAGGTCAAAGGTCAAAGTGGAGCCAACCA"
endpoint_value = 11.2

[[record]]
item_sequence = "TCATTTAGGTAAAAGGTGAAAGTCGGTGTGGTAA"
endpoint_value = 8.2


====

Test system: RARg:RXRa (NR concentration 270 nM, RXRa partner concentration 90 nM)
assay.comment: PBM binding z-score (relative to random genomic background probes); higher = stronger binding; sequences stand for … in GC…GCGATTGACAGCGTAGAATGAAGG
Hi, to clarify the labels: Y covers PBM binding z-score from 3 upward, N covers anything below 3.

[[record]]
item_sequence = "AGAACGAGGGCACGCTGAGTTGACAGCAGAGTAG"
tested_target = "RARg:RXRa (NR concentration 270 nM, RXRa partner concentration 90 nM)"
discrete_label = "N"

[[record]]
item_sequence = "TCTTGTAGATCACTAGAGGTTAAGAAAGTGCGCT"
tested_target = "RARg:RXRa (NR concentration 270 nM, RXRa partner concentration 90 nM)"
discrete_label = "N"

[[record]]
item_sequence = "CGTCCAAGGTCAGAGAGGTAAGTGAATGCCGAGT"
tested_target = "RARg:RXRa (NR concentration 270 nM, RXRa partner concentration 90 nM)"
discrete_label = "Y"

[[record]]
item_sequence = "AATACAGGGTCATCGTAGGCCAGAGAACGCACAG"
tested_target = "RARg:RXRa (NR concentration 270 nM, RXRa partner concentration 90 nM)"
discrete_label = "Y"

[[record]]
item_sequence = "TCGAATAGGTTACCAATGGGGCATTCAGCTTTCT"
tested_target = "RARg:RXRa (NR concentration 270 nM, RXRa partner concentration 90 nM)"
discrete_label = "N"

[[record]]
item_sequence = "AATACAGGGTCATCGTAGGCCAGAGTACGCACAG"
tested_target = "RARg:RXRa (NR concentration 270 nM, RXRa partner concentration 90 nM)"
discrete_label = "Y"

[[record]]
item_sequence = "TCTGCTAGGTCACTTGGTCAGCTAACGAGCTGCC"
tested_target = "RARg:RXRa (NR concentration 270 nM, RXRa partner concentration 90 nM)"
discrete_label = "Y"

[[record]]
item_sequence = "TCTTGTAGATCAAGCAGGTTAAGAAGGCCTGAGT"
tested_target = "RARg:RXRa (NR concentration 270 nM, RXRa partner concentration 90 nM)"
discrete_label = "N"

[[record]]
item_sequence = "CGAACGAGGGCATGAGTAGATAGCAAATGCCGAT"
tested_target = "RARg:RXRa (NR concentration 270 nM, RXRa partner concentration 90 nM)"
discrete_label = "N"

[[record]]
item_sequence = "CGAACTAGCTCAGAACAGGACAGTGAAGGATGAT"
tested_target = "RARg:RXRa (NR concentration 270 nM, RXRa partner concentration 90 nM)"
discrete_label = "N"

[[record]]
item_sequence = "GCTTGTAGATCAAGGTTAAGGAAGACTAAGCTAA"
tested_target = "RARg:RXRa (NR concentration 270 nM, RXRa partner concentration 90 nM)"
discrete_label = "N"

[[record]]
item_sequence = "TCATATAGGTATATGCTAGGTGAAAGTCCGATCT"
tested_target = "RARg:RXRa (NR concentration 270 nM, RXRa partner concentration 90 nM)"
discrete_label = "N"

[[record]]
item_sequence = "CAAACTAAGTCAAAGGTCAAAGTCGAGCCAACCA"
tested_target = "RARg:RXRa (NR concentration 270 nM, RXRa partner concentration 90 nM)"
discrete_label = "Y"

[[record]]
item_sequence = "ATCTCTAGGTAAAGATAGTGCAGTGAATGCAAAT"
tested_target = "RARg:RXRa (NR concentration 270 nM, RXRa partner concentration 90 nM)"
discrete_label = "N"

[[record]]
item_sequence = "TCAGACAGGTGCAGGTAACTCAGGTACGCAGTCG"
tested_target = "RARg:RXRa (NR concentration 270 nM, RXRa partner concentration 90 nM)"
discrete_label = "N"

[[record]]
item_sequence = "TCTTGTTGGTCAAAGGTCACACACTCGAAATGCG"
tested_target = "RARg:RXRa (NR concentration 270 nM, RXRa partner concentration 90 nM)"
discrete_label = "Y"

[[record]]
item_sequence = "AGTCAAAGTCCACTAGGTAACGTAAGATTCAGCT"
tested_target = "RARg:RXRa (NR concentration 270 nM, RXRa partner concentration 90 nM)"
discrete_label = "N"

[[record]]
item_sequence = "CGAACTAGGTCATAACAGGACAGTGAAGGATGAT"
tested_target = "RARg:RXRa (NR concentration 270 nM, RXRa partner concentration 90 nM)"
discrete_label = "Y"

[[record]]
item_sequence = "GATACAGGGTCAGCTAGAGGCCAGAGCATGGAAA"
tested_target = "RARg:RXRa (NR concentration 270 nM, RXRa partner concentration 90 nM)"
discrete_label = "Y"

[[record]]
item_sequence = "CCTGCTAGGTTAATGGTCAGCTAAAGCAGCTCGC"
tested_target = "RARg:RXRa (NR concentration 270 nM, RXRa partner concentration 90 nM)"
discrete_label = "N"

[[record]]
item_sequence = "CAGCCTAGGTAAGGGCCAGTATAGGAGGAACGTT"
tested_target = "RARg:RXRa (NR concentration 270 nM, RXRa partner concentration 90 nM)"
discrete_label = "N"

[[record]]
item_sequence = "TCTAGTTGCTCAAAGGTCACACACTCGAAATGCG"
tested_target = "RARg:RXRa (NR concentration 270 nM, RXRa partner concentration 90 nM)"
discrete_label = "Y"

[[record]]
item_sequence = "ATCTCTAGGTAATCAAGTTCAGTGAATGCCGAAC"
tested_target = "RARg:RXRa (NR concentration 270 nM, RXRa partner concentration 90 nM)"
discrete_label = "N"

[[record]]
item_sequence = "CAAACTAGGTTACGAAAGGTCAAAGTCGAATGAC"
tested_target = "RARg:RXRa (NR concentration 270 nM, RXRa partner concentration 90 nM)"
discrete_label = "Y"

[[record]]
item_sequence = "CGTCCAAGGTCAGAGAGCTCAGTGAATGCCGAGT"
tested_target = "RARg:RXRa (NR concentration 270 nM, RXRa partner concentration 90 nM)"
discrete_label = "Y"

